Origin of the recorded values: patent US6737383B1

- Tested on: bedstraw
- protocol_notes: Test B pre/postemergence bedstraw
- Assay type: in vivo, Galium aparine
- reported_conditions: Rate 500 g/ha, Postemergence; scale 0 to 10
- Protocol: […] At the same time, these crop and weed species were also treated with postemergence applications of test chemicals formulated in the same manner. […] Treated plants and controls were maintained in a greenhouse for twelve to sixteen days, after which all species were compared to controls and visually evaluated. […]
measured_parameter: Bedstraw plant response rating
Lab note: record just the number, no unit beside it.

INPUT: Which Bedstraw plant response rating value belongs to `CC(C)N(C(=O)n1oc(=O)n([C@H](C)c2ccccc2)c1=O)c1ccc(Cl)cc1` ?
OUTPUT: 0

INPUT: Another: `Cc1ccccc1-n1c(=O)on(C(=O)N(c2ccc(S(C)(=O)=O)cc2)C(C)C)c1=O`
OUTPUT: 0

INPUT: Another: CC1CCCCC1n1c(=O)on(C(=O)N(c2ccc(F)cc2)C(C)C)c1=O (stereo not shown)
OUTPUT: 4

INPUT: Another: `CC(C)N(C(=O)n1oc(=O)n(-c2nc(Cl)sc2Cl)c1=O)c1ccc(F)cc1`
OUTPUT: 0

---

- Test system: morningglory
- protocol_notes: Test B pre/postemergence morningglory
- Format: in vivo, Ipomoea hederacea
- reported_conditions: Rate 500 g/ha, Postemergence; scale 0 to 10, 0 no effect, 10 complete control
measured_parameter: Morningglory plant response rating
Lab note: record just the number, no unit beside it.

INPUT: Enter reported Morningglory plant response rating observed with morningglory for CC(C)N(C(=O)n1oc(=O)n(C2CCCC2)c1=O)c1ccc(Cl)cc1 [Compound 282]
OUTPUT: 9

INPUT: Another: CCN(C(=O)n1oc(=O)n(Cc2cccs2)c1=O)C1CCCCC1 [Compound 82]
OUTPUT: 10

INPUT: Another: Cc1cc(C)c(-n2c(=O)on(C(=O)N(c3ccc(F)cc3)C(C)C)c2=O)c(Br)c1 [Compound 224]
OUTPUT: 6

INPUT: Another: CC(C)N(C(=O)n1oc(=O)n(-c2cnn(C)c2Cl)c1=O)c1ccccc1 [Compound 122]
OUTPUT: 4

INPUT: Another: CCc1noc(C)c1-n1c(=O)on(C(=O)N(c2ccc(F)cc2)C(C)C)c1=O [Compound 101]
OUTPUT: 1

INPUT: Another: CC(C)N(C(=O)n1oc(=O)n(CCC2CCCCC2)c1=O)c1ccc(F)cc1 [Compound 257]
OUTPUT: 8

INPUT: Another: Cc1nn(C)c(Cl)c1-n1c(=O)on(C(=O)N(c2ccc(F)cc2)C(C)C)c1=O [Compound 95]
OUTPUT: 8

---

For each of the compounds below, state its Blackgrass plant response rating.
- Tested on: blackgrass
- protocol_notes: Test B pre/postemergence blackgrass
- Type: in vivo, Alopecurus myosuroides
- reported_conditions: Preemergence, Rate 500 g/ha; scale 0 (no effect) to 10 (complete control)

INPUT: Which Blackgrass plant response rating value belongs to `Cc1ccccc1-n1c(=O)on(C(=O)N(c2cc(F)ccc2F)C(C)C)c1=O` ?
OUTPUT: 4

INPUT: Another: `CCN(C(=O)n1oc(=O)n(Cc2cccs2)c1=O)C1CCCCC1`
OUTPUT: 0

INPUT: Another: `Cc1ccccc1-n1c(=O)on(C(=O)N(c2ccc(F)cc2F)C(C)C)c1=O`
OUTPUT: 8

INPUT: Another: `COc1ccc(N(C(=O)n2oc(=O)n(-c3ccccc3C)c2=O)C(C)C)cc1`
OUTPUT: 0

INPUT: Another: `CCc1noc(C)c1-n1c(=O)on(C(=O)N(c2ccc(F)cc2)C(C)C)c1=O`
OUTPUT: 0

---

- System: giant foxtail
- protocol_notes: Test B pre/postemergence giant foxtail
- Assay type: in vivo, Setaria faberii
- reported_conditions: Preemergence, Rate 125 g/ha; scale 0 to 10 (0 no effect, 10 complete control)
For each of the molecules below, state its Plant response rating, Giant foxtail.
Lab note: record just the number, no unit beside it.

INPUT: Enter reported Plant response rating, Giant foxtail observed with giant foxtail for `CCN(CC)C(=O)n1oc(=O)n(-c2ccc(OC(F)(F)F)cc2)c1=O`
OUTPUT: 0

INPUT: Another: `Cc1ccccc1-n1c(=O)on(C(=O)N(c2cc(F)ccc2F)C(C)C)c1=O`
OUTPUT: 9

INPUT: Another: `COc1ccc(N(C(=O)n2oc(=O)n(-c3ccccc3C)c2=O)C(C)C)cc1`
OUTPUT: 8

INPUT: Another: `CC(C)N(C(=O)n1oc(=O)n(-c2cnn(C)c2)c1=O)c1ccc(F)cc1`
OUTPUT: 8

---

- System: sugar beet
- protocol_notes: Test B pre/postemergence sugar beet
- Format: in vivo, Beta vulgaris
- reported_conditions: Rate 125 g/ha; Preemergence; scale of 0 to 10 where 0 is no effect and 10 is complete control
measured_parameter: Sugarbeets plant response rating
Lab note: record just the number, no unit beside it.

INPUT: Enter reported Sugarbeets plant response rating observed with sugar beet for COCCOCn1c(=O)on(C(=O)N(c2ccc(F)cc2)C(C)C)c1=O [Compound 258]
OUTPUT: 2

INPUT: Another: CC(C)N(C(=O)n1oc(=O)n(C2CCCC2)c1=O)c1ccc(Cl)cc1 [Compound 282]
OUTPUT: 0

INPUT: Another: CC(C)N(C(=O)n1oc(=O)n(CCC2CCCCC2)c1=O)c1ccc(F)cc1 [Compound 257]
OUTPUT: 0

INPUT: Another: CCC(C)N(C(=O)n1oc(=O)n(-c2ccccc2C)c1=O)c1ccc(F)cc1 (stereo not drawn) [Compound 239]
OUTPUT: 0

INPUT: Another: COCCOCn1c(=O)on(C(=O)N(c2ccc(F)cc2)C(C)C)c1=O [Compound 220]
OUTPUT: 6

INPUT: Another: CC(C)N(C(=O)n1oc(=O)n(C2CC2)c1=O)c1ccccc1 [Compound 243]
OUTPUT: 3

---

- Tested on: soybean
- protocol_notes: Test B pre/postemergence soybean
- Assay type: in vivo, Glycine max
- reported_conditions: Preemergence, Rate 250 g/ha; scale of 0 to 10 where 0 is no effect and 10 is complete control
measured_parameter: Soybean plant response rating
Lab note: record just the number, no unit beside it.

INPUT: Which Soybean plant response rating value belongs to `CC(C)N(C(=O)n1oc(=O)n(C2CC2)c1=O)c1ccccc1` ?
OUTPUT: 8

INPUT: Another: `Cc1ccccc1-n1c(=O)on(C(=O)N(c2ccncc2)C(C)C)c1=O`
OUTPUT: 0

INPUT: Another: `CC(C)N(C(=O)n1oc(=O)n(C2CCC2)c1=O)c1ccc(F)cc1`
OUTPUT: 0

INPUT: Another: `Cc1ccccc1-n1c(=O)on(C(=O)N(c2cccc(F)c2)C(C)C)c1=O`
OUTPUT: 0

INPUT: Another: CC(C)N(C(=O)n1oc(=O)n(C(C)Cl)c1=O)c1ccc(F)cc1 (centres unmarked)
OUTPUT: 0

---

For each of the compounds below, state its Plant response rating, Redroot pigweed.
- Tested on: pigweed
- protocol_notes: Test B pre/postemergence pigweed
- Format: in vivo, Amaranthus retroflexus
- reported_conditions: Preemergence, Rate 250 g/ha; scale of 0 to 10 where 0 is no effect and 10 is complete control
- Method: […] At the same time, these crop and weed species were also treated with postemergence applications of test chemicals formulated in the same manner. […] Treated plants and controls were maintained in a greenhouse for twelve to sixteen days, after which all species were compared to controls and visually evaluated. […]

INPUT: Which Plant response rating, Redroot pigweed value belongs to `CC(C)N(C(=O)n1oc(=O)n(-c2cnn(C)c2Cl)c1=O)c1ccccc1` ?
OUTPUT: 8

INPUT: Another: `COc1ccc(N(C(=O)n2oc(=O)n(-c3ccccc3C)c2=O)C(C)C)cc1`
OUTPUT: 0

INPUT: Another: `Cc1ccccc1-n1c(=O)on(C(=O)N(c2ccc(F)cc2F)C(C)C)c1=O`
OUTPUT: 8

INPUT: Another: `CCn1c(=O)on(C(=O)N(c2ccc(F)cc2)C(C)C)c1=O`
OUTPUT: 10

INPUT: Another: `CC(C)N(C(=O)n1oc(=O)n(-c2cnn(C)c2)c1=O)c1ccc(F)cc1`
OUTPUT: 5

---

- Tested on: wheat
- protocol_notes: Test B pre/postemergence wheat
- Assay type: in vivo, Triticum aestivum
- reported_conditions: Rate 125 g/ha; Preemergence; scale of 0 to 10 where 0 is no effect and 10 is complete control
For each of the molecules below, state its Wheat plant response rating.

INPUT: Which Wheat plant response rating value belongs to CCOC(=O)C(C)N(C(=O)n1oc(=O)n(-c2c(C)cccc2C)c1=O)c1ccc(F)cc1 (stereo not shown) ?
OUTPUT: 0

INPUT: Another: `CC(C)N(C(=O)n1oc(=O)n(C2CCCC2)c1=O)c1ccc(Cl)cc1`
OUTPUT: 0

INPUT: Another: CCC(C)N(C(=O)n1oc(=O)n(-c2ccccc2C)c1=O)c1ccc(F)cc1 (stereo not shown)
OUTPUT: 0

INPUT: Another: `CC(C)N(C(=O)n1oc(=O)n(C2CC2)c1=O)c1ccccc1`
OUTPUT: 8
